measured_on: Alpha-2C adrenergic receptor (Homo sapiens) (UniProt P18825)
Sequence (P18825 whole entry, looked up): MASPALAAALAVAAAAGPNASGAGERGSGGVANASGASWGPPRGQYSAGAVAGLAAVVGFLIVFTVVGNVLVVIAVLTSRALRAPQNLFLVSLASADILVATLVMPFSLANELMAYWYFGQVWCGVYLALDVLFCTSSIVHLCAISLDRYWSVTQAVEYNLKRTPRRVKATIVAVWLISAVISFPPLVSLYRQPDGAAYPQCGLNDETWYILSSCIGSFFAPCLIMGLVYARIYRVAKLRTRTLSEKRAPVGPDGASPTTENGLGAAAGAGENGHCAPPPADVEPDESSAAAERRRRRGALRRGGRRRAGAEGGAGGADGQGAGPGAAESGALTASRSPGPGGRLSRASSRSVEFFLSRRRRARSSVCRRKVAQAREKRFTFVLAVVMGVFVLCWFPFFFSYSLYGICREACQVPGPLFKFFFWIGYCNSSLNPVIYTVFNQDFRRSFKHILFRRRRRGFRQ
assay_protocol: compounds altering alpha2C-coupled GIRK flux – cell-based, HEK293 alpha2C/GIRK1/2, thallium flux, primary screen (AID 624);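 also: slope of fluorescence ratio to pre-addition baseline per second over 15 to 24 s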
experimental_conditions: thallium flux BTC fluorescence, at 10 µM, actives lie on both sides
experimental_readout: slope
Output spec: single numeric token, no unit.

Past entries and their recorded results:
molecule	measured_on	slope
CCOc1cc(NC(=O)c2ccccn2)c(OCC)cc1NC(=O)CC(C)C	Alpha-2C adrenergic receptor (Homo sapiens) (UniProt P18825)	0.00499
CCN1CCN(CCCNC(=O)c2cc3sccc3n2CC)CC1	Alpha-2C adrenergic receptor (Homo sapiens) (UniProt P18825)	0.00699
COC(=O)c1[nH]c2ccc(C)cc2c1NC(=O)CN1CCN(C(=O)c2ccccc2)CC1	Alpha-2C adrenergic receptor (Homo sapiens) (UniProt P18825)	0.00437
O=C1CCC(C(=O)N(Cc2ccco2)C2(C(=O)NC3CCCC3)CCCCC2)N1 (stereo not drawn)	Alpha-2C adrenergic receptor (Homo sapiens) (UniProt P18825)	0.00488
COc1cccc(NC(=O)CSc2nnc(Cc3cccn3C)n2-c2ccc(F)cc2)c1	Alpha-2C adrenergic receptor (Homo sapiens) (UniProt P18825)	0.00609

Let's switch to this molecule now.
Input: Endpoint output: slope of `Cc1ccc(C)c(CSc2nnc(CCN)o2)c1` . Value?
Output: 0.00535

* * *

Collected NADPH fluorescence slope values appear next to each entry.
measured_on: Voltage-gated potassium channel subunit beta-2 (Rattus norvegicus)
assay_protocol: enhancers of rat Kvbeta2 NADPH turnover – biochemical, NADPH fluorescence, primary screen (AID 623);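 also: fluorescence intensity change per second fitted from 20 to 320 s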
experimental_conditions: Recombinant KvBeta, NADPH fluorescence decrease slope, 10 min; at 10 µM; stronger effect = lower value
Write the number on its own, no unit after it.

Answered examples (2):
compound	NADPH fluorescence slope
CC(NS(=O)(=O)c1ccc(OCC(=O)N2CCOCC2)c(Cl)c1)c1ccccc1 (configuration not stated)	-3.1e-05
Cc1ccccc1OCc1nnc(SCC(=O)NCc2ccccc2)n1C	5.8e-06

Input: Consider the compound O=C1CC(c2ccsc2)c2cc3c(cc2N1)OCCO3 (configuration not stated) and give its measured NADPH fluorescence slope.
Output: -2.5e-05

Input: Also check `CC(C)N(O)C(=O)NC(C)(C)C`
Output: -2.2e-05

Input: Entry to check: `Cc1cc(C)n(CCCNC(=O)c2ccc3c(c2)NC(=O)CS3)n1`
Output: -1.2e-05

* * *

measured_on: Muscarinic acetylcholine receptor M4 (Homo sapiens)
assay_protocol: M4-linked GIRK flux change, two-sided – cell-based, HEK293 M4/GIRK, thallium flux, BTC-AM, M4 allosteric agonist project, primary screen (AID 625);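 also: thallium influx through GIRK channels coupled to M4 in HEK293 cells with BTC-AM dye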
experimental_conditions: at 10 µM, actives lie on both sides
Measured fluorescence slope values are reported for all entries that follow.
// response body must contain only the number

# count of solved cases: 2
CCCC(=O)N1CCN(c2ccc(NC(=O)c3ccc(Br)o3)cc2)CC1 0.00487
O=C(O)CCNc1ccc2c(c1)OCCO2 0.00514

We next turn to a different molecule, shown below.
Input: fluorescence slope of `COc1ncnc2c1N=C1CC(C)(C)CC(N)=C1S2` on Muscarinic acetylcholine receptor M4 (Homo sapiens)?
Output: 0.00511

* * *

measured_on: Voltage-gated potassium channel subunit beta-2 (Rattus norvegicus) (UniProt P62483)
Sequence (P62483 whole entry, looked up): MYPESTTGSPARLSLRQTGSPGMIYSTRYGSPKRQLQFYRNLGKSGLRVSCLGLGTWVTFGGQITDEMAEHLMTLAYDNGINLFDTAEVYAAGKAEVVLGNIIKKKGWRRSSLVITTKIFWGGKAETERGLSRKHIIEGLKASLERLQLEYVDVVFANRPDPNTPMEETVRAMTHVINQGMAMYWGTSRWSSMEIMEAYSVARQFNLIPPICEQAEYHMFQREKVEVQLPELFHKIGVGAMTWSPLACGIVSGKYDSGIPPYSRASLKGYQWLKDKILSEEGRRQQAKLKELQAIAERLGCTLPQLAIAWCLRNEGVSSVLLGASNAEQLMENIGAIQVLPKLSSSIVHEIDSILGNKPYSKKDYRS
assay_protocol: inhibitors of rat Kvbeta2 reductase activity – biochemical, NADPH fluorescence, primary screen (AID 622);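 also: slope of raw intensity against log time taken from 70 to 1610 s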
experimental_conditions: recombinant KvBeta, 4-cyanobenzaldehyde reduction, at 10 µM, stronger effect = higher value
experimental_readout: fluorescence slope
// return a plain number; no unit text

compound	observed_value
CC(=O)Nc1cccc(NC(=O)C2CCCN2C(=O)Nc2ccc(C)cc2)c1 (centres undefined)	-0.507
COc1ccc(C)cc1NC(=O)c1nnn(Cc2cccc(F)c2)c1N	-0.513

Input: Suppose we examine the compound `COc1ccccc1NC(=O)CSc1nnc(-c2ccncc2)o1` ; what fluorescence slope value has been reported?
Output: -0.506

Input: Now consider `COc1cc(CN2CCSCC2)cc(OC)c1OC` and answer again.
Output: -0.486

* * *

assay_protocol: reduction of polyQ htt aggregates in cells – imaging, exon1htt(103Q)mCFP cells, high-content imaging, primary screen (AID 483);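 also: compound exposure lasted 3 days before fixation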
experimental_conditions: exon1htt(103Q)mCFP cell line, aggregate imaging, at 2 µM; stronger effect = higher value
experimental_readout: inhibition of aggregation (%)
State the answer as a number, implicitly in %.

Some entries whose results are on file:
compound	inhibition of aggregation (%)
CSc1cccc(NC(=O)C2CCCN2S(=O)(=O)c2ccc3c(c2)CCC(=O)N3)c1 (centres undefined)	-43.4
CCOC(=O)N1CCN(C(=O)CCc2c(C)nc3c(c(C)nn3-c3ccc(C)c(C)c3)c2C)CC1	-9.9
Cc1ccc(S(=O)(=O)N2CCN(C(=O)CSC3CCCC3)CC2)c(C)c1	-0.7
CCCn1c(SCC(=O)N2CCc3ccccc3C2)nc2c1c(=O)n(C)c(=O)n2C	-13.1

Input: Can you look up the measured inhibition of aggregation of `O=C(OCc1nnc(-c2ccccc2)o1)c1ccc2ccccc2n1` for me?
Output: -11.6

Input: Also need `O=C(CCn1[nH]c(=O)c2ccccc2c1=O)NCCO` , thanks.
Output: 0.4

* * *

Each item that follows carries a reported inhibition of aggregation.
assay_protocol: reduction of polyQ htt aggregates in cells – imaging, exon1htt(103Q)mCFP cells, high-content imaging, primary screen (AID 483);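 also: compound exposure lasted 3 days before fixation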
experimental_conditions: exon1htt(103Q)mCFP cell line, aggregate imaging, at 2 µM; stronger effect = higher value
Report the value in % with no unit label.

compound	scale_unit	inhibition of aggregation
CC1(C)C(c2cccs2)=[N+]([O-])C2(CCCCC/C2=N\O)N1O (stereo unspecified)	%	5.7

Input: Given `CCOc1ccc(C2C(C(=O)OC)=CN(CCOC)C=C2C(=O)OC)cc1` , state its recorded inhibition of aggregation.
Output: -3.4

Input: Could you do the same for `CCOC(=O)N1CCC(NC(=O)c2ccc3c(c2)N(C)CCS3)CC1` , please?
Output: 17.8

Input: Note, next up: `CC(=O)Nc1ccc(S(=O)(=O)N(CC(=O)O)Cc2ccccc2)cc1`
Output: 4.7

Input: Also `COc1ccc(-c2noc(CCCOc3ccccc3)n2)cc1OC` , if possible.
Output: 21

Input: Likewise for `COc1ccccc1NC(=O)NCc1ccc2c(c1)OCO2` ?
Output: 25.8

* * *

Below: a set of entries, each annotated with reported inhibition.
assay_protocol: TLR3 IRF3 reporter activation blockers – cell-based, poly I:C stimulus, luciferase, 10K MLSCN set, primary screen (AID 602277)
experimental_conditions: HEK293-TLR3 RL24 IRF3 luciferase reporter, at 10 µM, stronger effect = higher value
The reply should contain only the number, in %.

# count of solved cases: 8
compound	observed_value
CCC(C)N=C1SCC(C)(/C=N/O)S1 (centres undefined)	2.1
Cc1ccc(OC(=O)NC2CCS(=O)(=O)C2)cc1C (centres undefined)	17.3
CCOC(=O)c1ccc(CNC(=O)C(Cc2c[nH]c3ccccc23)NC(C)=O)o1 (centres undefined)	29.3
COC(=O)c1sc(N)c(C(=O)OC)c1COC(=O)C1CC(=O)N(Cc2ccco2)C1 (centres undefined)	11.9
CCOC(=O)c1c(NC(=O)OC)sc2c1CCC2	15.6
COc1ccc(CCNC(=O)C2CCCN(c3nn4c(=O)cc(C)nc4s3)C2)cc1OC (centres undefined)	16.7
Cc1cc2c(=O)n(Cc3ccco3)c(SCC(=O)NCc3ccco3)nc2s1	17.7
Cc1cccc(NC(=O)c2cc3ccccc3o2)c1	-74.5

Proceed to the following item.
Input: For the compound shown here, COc1ccc(NC(=O)C2CCCCN2S(=O)(=O)c2ccc(F)cc2)cc1 (centres undefined) , give the reported inhibition.
Output: 42.2

* * *

measured_on: Voltage-gated potassium channel subunit beta-2 (Rattus norvegicus)
assay_protocol: inhibitors of rat Kvbeta2 reductase activity – biochemical, NADPH fluorescence, primary screen (AID 622);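 also: slope of raw intensity against log time taken from 70 to 1610 s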
experimental_conditions: recombinant KvBeta, 4-cyanobenzaldehyde reduction, at 10 µM, stronger effect = higher value
experimental_readout: fluorescence slope
Please respond with just the number, no unit label.

// known answers, use as guide
molecule	measured_on	fluorescence slope
Cc1c(=O)n(OCc2ccccn2)c2ccccc2[n+]1[O-]	Voltage-gated potassium channel subunit beta-2 (Rattus norvegicus)	-0.412
Cc1cc(C(=O)Nc2c(C)n(C)n(-c3ccccc3)c2=O)c(C)o1	Voltage-gated potassium channel subunit beta-2 (Rattus norvegicus)	-0.412
O=C(NC1CCCCC1)C(c1ccc(Cl)cc1)N(C(=O)c1cnccn1)c1ccc2c(c1)OCO2 (stereo not given)	Voltage-gated potassium channel subunit beta-2 (Rattus norvegicus)	-0.392
O=S(=O)(Nc1cccnc1)c1ccc2c(c1)OCCO2	Voltage-gated potassium channel subunit beta-2 (Rattus norvegicus)	-0.393

// switching to the query molecule
Input: Voltage-gated potassium channel subunit beta-2 (Rattus norvegicus) / fluorescence slope / `COc1ccc(C)cc1NC(=O)CN1CCN(S(=O)(=O)c2ccc(Cl)cc2)CC1` : value?
Output: -0.41
